Test system: HeLa
Experiment: Cytotoxicity against human HeLa cells after 72 hrs by MTT assay
Type: functional
Readout Kind: GI50 (nM)
Give the value, in units of nM, as a plain number.

Provide measured GI50 value, entry: CN(Cc1ccccc1)S(=O)(=O)c1ccc2c(c1)S(=O)(=O)C=C2 10

Provide measured GI50 value, entry: COc1ccc(NC(=O)c2ccc3c(c2)S(=O)(=O)C=C3)cc1 3

Provide measured GI50 value, entry: NS(=O)(=O)c1ccc2c(c1)S(=O)(=O)C=C2 2210

Provide measured GI50 value, entry: COc1ccc(CCNS(=O)(=O)c2ccc3c(c2)S(=O)(=O)C=C3)cc1 120

Provide measured GI50 value, entry: COc1ccc(CCNC(=O)c2ccc3c(c2)S(=O)(=O)C=C3)cc1 40

Provide measured GI50 value, entry: O=S1(=O)C=Cc2ccc(S(=O)(=O)NCc3ccccc3)cc21 10

Provide measured GI50 value, entry: CCCCNC(=O)c1ccc2c(c1)S(=O)(=O)C=C2 80

Provide measured GI50 value, entry: NC(=O)c1ccc2c(c1)S(=O)(=O)C=C2 650

* * *

Experiment: Cytotoxicity against human MEL-AC cells after 72 hrs by MTT assay
Format: functional
Would you kindly list GI50 for each of these molecules?
Note: a bare number is incomplete; add the unit.

Provide measured GI50 value, entry: O=S1(=O)C=Cc2ccc(O)cc21 24 µM

Provide measured GI50 value, entry: CN(Cc1ccccc1)S(=O)(=O)c1ccc2c(c1)S(=O)(=O)C=C2 2.3 µM

Provide measured GI50 value, entry: NS(=O)(=O)c1ccc2c(c1)S(=O)(=O)C=C2 7.14 µM
